System: A549
protocol: Cytotoxicity against human A549 cells assessed as cell survival at 5 uM after 24 hrs by MTT assay relative to control
Type: functional
experimental_context: A549, 24 h, read-out: Survival
assay_metric: viability at 5 µM (%)

• COc1cc2c(cc1OC/C=C/Cn1cc(-c3ccccc3OC)nn1)N=C[C@@H]1CCCN1C2=O = 91
• COc1cccc(-c2cn(C/C=C/COc3cc4c(cc3OC)C(=O)N3CCC[C@H]3C=N4)nn2)c1 = 86
• COc1cc2c(cc1O)N=C[C@@H]1CCCN1C2=O = 85.4
• COc1ccc(-c2cn(C/C=C\COc3cc4c(cc3OC)C(=O)N3CCC[C@H]3C=N4)nn2)cc1 = 98.2
• COc1cc2c(cc1OC/C=C/Cn1cc(-c3ccccc3)nn1)N=C[C@@H]1CCCN1C2=O = 70
• COc1cc2c(cc1OC/C=C\Cn1cc(-c3ccccc3OC)nn1)N=C[C@@H]1CCCN1C2=O = 102
• COc1cccc(-c2cn(C/C=C\COc3cc4c(cc3OC)C(=O)N3CCC[C@H]3C=N4)nn2)c1 = 100
• COc1cc2c(cc1OC/C=C\Cn1cc(-c3ccccc3)nn1)N=C[C@@H]1CCCN1C2=O = 65.6
• COc1ccc(-c2cn(C/C=C/COc3cc4c(cc3OC)C(=O)N3CCC[C@H]3C=N4)nn2)cc1 = 81

====

Tested on: A-375
protocol: Cell cycle arrest in human A375 cells assessed as accumulation at G2/M phase after 24 hrs by propidium iodide staining-based flow cytometry (reference value: 15.2 +/- 0.6%)
Format: functional
assay_metric: Activity (%)

• COc1cc2c(cc1OC/C=C\Cn1cc(-c3ccccc3)nn1)N=C[C@@H]1CCCN1C2=O = 2.2
• COc1ccc(-c2cn(C/C=C/COc3cc4c(cc3OC)C(=O)N3CCC[C@H]3C=N4)nn2)cc1 = 5.1
• COc1cccc(-c2cn(C/C=C\COc3cc4c(cc3OC)C(=O)N3CCC[C@H]3C=N4)nn2)c1 = 3.3
• COc1ccc(-c2cn(C/C=C\COc3cc4c(cc3OC)C(=O)N3CCC[C@H]3C=N4)nn2)cc1 = 3.4
• COc1cc2c(cc1OC/C=C/Cn1cc(-c3ccccc3OC)nn1)N=C[C@@H]1CCCN1C2=O = 5.1
• COc1cc2c(cc1OC/C=C\Cn1cc(-c3ccccc3OC)nn1)N=C[C@@H]1CCCN1C2=O = 1.3
• COc1cc2c(cc1OC/C=C/Cn1cc(-c3ccccc3)nn1)N=C[C@@H]1CCCN1C2=O = 5.5
• COc1cccc(-c2cn(C/C=C/COc3cc4c(cc3OC)C(=O)N3CCC[C@H]3C=N4)nn2)c1 = 3.5

====

Tested on: Ca9-22
protocol: Cytotoxicity against human Ca9-22 cells assessed as cell survival at 5 uM after 24 hrs by MTT assay relative to control
Type: functional
experimental_context: Ca9-22, 24 h, read-out: Survival
assay_metric: viability at 5 µM (%)

* COc1cc2c(cc1O)N=C[C@@H]1CCCN1C2=O | 94.4
* COc1ccc(-c2cn(C/C=C\COc3cc4c(cc3OC)C(=O)N3CCC[C@H]3C=N4)nn2)cc1 | 55.5
* COc1cc2c(cc1OC/C=C\Cn1cc(-c3ccccc3)nn1)N=C[C@@H]1CCCN1C2=O | 25.6
* COc1cc2c(cc1OC/C=C/Cn1cc(-c3ccccc3)nn1)N=C[C@@H]1CCCN1C2=O | 61.2
* COc1cccc(-c2cn(C/C=C\COc3cc4c(cc3OC)C(=O)N3CCC[C@H]3C=N4)nn2)c1 | 50
* COc1ccc(-c2cn(C/C=C/COc3cc4c(cc3OC)C(=O)N3CCC[C@H]3C=N4)nn2)cc1 | 84.1
* COc1cc2c(cc1OC/C=C/Cn1cc(-c3ccccc3OC)nn1)N=C[C@@H]1CCCN1C2=O | 95.6
* COc1cccc(-c2cn(C/C=C/COc3cc4c(cc3OC)C(=O)N3CCC[C@H]3C=N4)nn2)c1 | 97.5
* COc1cc2c(cc1OC/C=C\Cn1cc(-c3ccccc3OC)nn1)N=C[C@@H]1CCCN1C2=O | 105

====

Test system: A-375
protocol: Induction of apoptosis in human A375 cells assessed as increase in Bad protein level at 5 uM after 24 hrs by Western blotting analysis
Format: functional, cell-based
Calls of active or inactive are those of the source. No cut-off for these calls is given here.
assay_metric: Activity

- COc1ccc(-c2cn(C/C=C\COc3cc4c(cc3OC)C(=O)N3CCC[C@H]3C=N4)nn2)cc1: Active
- COc1cc2c(cc1OC/C=C\Cn1cc(-c3ccccc3)nn1)N=C[C@@H]1CCCN1C2=O: Active
- COc1cc2c(cc1OC/C=C\Cn1cc(-c3ccccc3OC)nn1)N=C[C@@H]1CCCN1C2=O: Active
- COc1cccc(-c2cn(C/C=C\COc3cc4c(cc3OC)C(=O)N3CCC[C@H]3C=N4)nn2)c1: Active

====

protocol: Cytotoxicity against human skin fibroblasts assessed as cell survival at 5 uM after 24 hrs by MTT assay relative to control
Parameters: species or system Skin fibroblast
experimental_context: read-out: Survival
Listed below: viability at 24 h, 5 µM values for each entry.
assay_metric: viability at 24 h, 5 µM (%)

* COc1cccc(-c2cn(C/C=C\COc3cc4c(cc3OC)C(=O)N3CCC[C@H]3C=N4)nn2)c1 | 90.4
* COc1ccc(-c2cn(C/C=C\COc3cc4c(cc3OC)C(=O)N3CCC[C@H]3C=N4)nn2)cc1 | 90.3
* COc1cc2c(cc1OC/C=C\Cn1cc(-c3ccccc3OC)nn1)N=C[C@@H]1CCCN1C2=O | 84.7
* COc1cc2c(cc1O)N=C[C@@H]1CCCN1C2=O | 89.7
* COc1cccc(-c2cn(C/C=C/COc3cc4c(cc3OC)C(=O)N3CCC[C@H]3C=N4)nn2)c1 | 107
* COc1cc2c(cc1OC/C=C/Cn1cc(-c3ccccc3OC)nn1)N=C[C@@H]1CCCN1C2=O | 100
* COc1cc2c(cc1OC/C=C\Cn1cc(-c3ccccc3)nn1)N=C[C@@H]1CCCN1C2=O | 87.7
* COc1ccc(-c2cn(C/C=C/COc3cc4c(cc3OC)C(=O)N3CCC[C@H]3C=N4)nn2)cc1 | 104
* COc1cc2c(cc1OC/C=C/Cn1cc(-c3ccccc3)nn1)N=C[C@@H]1CCCN1C2=O | 93

Data origin: ChEMBL document CHEMBL3091328
